- System: SW 982 tumor spheroid viability
- PROCEDURE_SUMMARY: Anticancer human tumor SW 982 cell line growth inhibition;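 note: spheroids exposed to compound for 7 days before readout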
- ASSAY_CONDITIONS: second compound 1 µM; first compound 0.316 µM; stronger effect = lower value; spheroids with HUVEC and MSC

# COMPOUND, viability, T/C / %
rows = [
    ("COc1cc(C)[nH]c(=O)c1CN1CCc2c(Cl)cc(C(OC)C3COC3)c(Cl)c2C1=O (stereo unspecified) + Cn1nnc2c(C(N)=O)ncn2c1=O", 103),
    ("CC1COCCN1c1cc(-c2ccnn2C)c2ccnc(-c3ccn[nH]3)c2n1 (stereo unspecified) + Cn1nnc2c(C(N)=O)ncn2c1=O", 17.3),
    ("[2H]c1nc(C)nc([2H])c1-c1cc(NC[C@@H](C)c2cccc3c(C(=O)NC)ccnc23)ncn1 + Cn1nnc2c(C(N)=O)ncn2c1=O", 92.6),
    ("Cc1cc(C)c(CNC(=O)c2cc(-c3ccc(CN4CCOCC4)cc3)cc3c2cnn3C2CCCC2)c(=O)[nH]1 + Cn1nnc2c(C(N)=O)ncn2c1=O", 103),
    ("COc1ccc([C@@H](O)c2cc(-c3ncnc4cc(N5CCOCC5)ccc34)c(F)cc2Cl)nn1 + Cn1nnc2c(C(N)=O)ncn2c1=O", 93.3),
    ("CC(C)n1c(=O)n(C)c2cnc3cc(F)c(-c4ccc(OCCCN5CCCCC5)nc4)cc3c21 + Cn1nnc2c(C(N)=O)ncn2c1=O", 91.5),
]
